The reported measurements were obtained from patent US20100317845A1.

- protocol_details: physchem
- Type: physicochemical
- condition_set: 60 °C, water
measurement_label: solubility (mg/mL)
Note: unit mg/mL is implicit; provide only the numeric part.

// field: solubility; key: OC[C@H]1O[C@@](CO)(O[C@H]2O[C@H](CO)[C@@H](O)[C@H](O)[C@H]2O)[C@@H](O)[C@@H]1O [Form I sucrose, sucrose] ; value = 2870
